Form field: growth (one value per entry).
System: RXF 393 renal
Assay: NCI-60 one-dose screen, 48 h (100 = growth as untreated, 0 = no growth, -100 = all killed)
Conditions: 10 µM unless noted
The panel holds about 83,000 compounds, 20% with a hit somewhere; the sample as a whole holds those more often.
quantity-kind: growth (%)

>  <compound>
COc1ccc(C2=Nc3c/c(=C\c4c(O)[nH]c5cc(Cl)ccc45)ccc3=N2)cc1

>  <measured>
38.1

$$$$
>  <compound>
Cn1cc(-c2ccc3cc(-c4ccc(CC(=O)Nc5cc(C(C)(C)C)on5)cc4)cnc3c2)cn1

>  <measured>
-0.246

$$$$
>  <compound>
CC(/C=C1\SC(=S)N(CC(=O)NC(Cc2c[nH]c3ccccc23)C(=O)O)C1=O)=C\c1ccccc1 (stereo not given)

>  <measured>
106

$$$$
>  <compound>
CCOC(=O)C(=Cc1cccc(C#N)c1)C(=O)OCC

>  <measured>
33.5

$$$$
>  <compound>
CCn1cc(C(=O)NN=C2CCCCCC2)c(=O)c2ccc(C)nc21

>  <measured>
100

$$$$
